test: Solubility in PH 7.4 buffer by 1D 1H qNMR analysis; type: physicochemical
readoutType: solubility (µM)

Known solubility results, listed for orientation:
Query: Answer with the recorded solubility for the compound listed here: Cc1cc(Oc2ccc(CC(=O)N3CCOCC3C(=O)O)cc2)ccc1C#N (racemic)
Result: 1000

Query: Please supply the value of reported solubility for the item Cc1cc(Oc2ccc(CC(=O)NCCN3CCCN(C)CC3)cc2)ccc1C#N
Result: 1000

Query: Supply recorded solubility for CC(=O)N1CCN(C(=O)Cc2ccc(Oc3ccc(C#N)c(C)c3)cc2)CC1 here.
Result: 1000

Query: Identify solubility associated with the compound Cc1cc(Oc2ccc(CC(=O)N3CCOCC3)cc2)ccc1C#N
Result: 500

Query: Quickly give me recorded solubility for Cc1cc(Oc2ccc(CC(=O)N3CCN(C)C(=O)C3)cc2)ccc1C#N
Result: 1000

[P] Cc1cc(Oc2ccc(CC(=O)O)cc2)ccc1C#N
[Q] Cc1nc(CCN(C)C(=O)Cc2ccc(Oc3ccc(C#N)c(C)c3)cc2)no1
[R] CCN(CCn1cccn1)C(=O)Cc1ccc(Oc2ccc(C#N)c(C)c2)cc1
Query: Ordering: ascending solubility. Hello, could you send the labels back in the order asked? Thank you.
Result: R, Q, P
(R: 250 µM, Q: 500 µM, P: 1000 µM)

---

target: Thiol:disulfide interchange protein DsbA (Escherichia coli (strain K12)); assay: Binding affinity to uniformly labeled 15N oxidized Escherichia coli DsbA by 1H-15N HSQC NMR spectroscopy
Sequence (P0AEG4 whole entry): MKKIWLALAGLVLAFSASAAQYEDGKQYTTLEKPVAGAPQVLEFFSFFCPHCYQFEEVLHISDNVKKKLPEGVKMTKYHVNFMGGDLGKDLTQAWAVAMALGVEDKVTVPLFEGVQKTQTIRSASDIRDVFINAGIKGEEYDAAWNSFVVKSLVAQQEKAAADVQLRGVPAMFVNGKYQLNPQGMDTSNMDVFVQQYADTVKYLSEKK
pKd: −log10 of the molar value.
readoutType: pKd

Query: Tell us which pKd value is on record for Cc1cc(Oc2ccc(CC(=O)NCCN3CCCN(C)CC3)cc2)ccc1C#N
Result: 2.96

Query: Look up and report measured pKd for this entry: Cc1cc(Oc2ccc(CC(=O)N3CCOCC3)cc2)ccc1C#N
Result: 3.44

Query: Read off the recorded pKd for Cc1nc(CCN(C)C(=O)Cc2ccc(Oc3ccc(C#N)c(C)c3)cc2)no1
Result: 3.64

Query: Hello, please tell me recorded pKd for this one: Cc1cc(Oc2ccc(CC(=O)N3CCOCC3C(=O)O)cc2)ccc1C#N (racemic)
Result: 3.54

Query: Indicate the recorded pKd value for this molecule: Cc1cc(Oc2ccc(CC(=O)N3CCN(C)C(=O)C3)cc2)ccc1C#N
Result: 3.32

[a] CC(=O)N1CCN(C(=O)Cc2ccc(Oc3ccc(C#N)c(C)c3)cc2)CC1
[b] CCN(CCn1cccn1)C(=O)Cc1ccc(Oc2ccc(C#N)c(C)c2)cc1
Query: Kindly compare a with b and tell me which has the lower pKd figure. Please indicate the selected item by its label.
Result: a

Origin of the recorded values: ChEMBL document CHEMBL4610121
